test system: A549 NSCLC; assay: NCI tumour cell line growth inhibition, 48 h
TGI listing for selected compounds.
Quantity Name: TGI

{"Compound": "O=C1/C(=C/c2ccc(F)cc2)CNC/C1=C\\c1ccc(F)cc1", "Assayed Target": "A549 NSCLC", "Quantity Name": "TGI", "Measured": "18.1 µM"}
{"Compound": "O=C1C(C=NCCc2c[nH]c3ccccc23)C(C(F)(F)F)=NN1c1nc2ccccc2s1 (centres undefined)", "Assayed Target": "A549 NSCLC", "Quantity Name": "TGI", "Measured": "> 100 µM"}
{"Compound": "N#CSCc1cccc(Nc2cc(=O)[nH]c(=O)[nH]2)c1", "Assayed Target": "A549 NSCLC", "Quantity Name": "TGI", "Measured": "> 100 µM"}
{"Compound": "c1ccc2c(c1)CCCN1CCc3ccccc3C21 (centres undefined)", "Assayed Target": "A549 NSCLC", "Quantity Name": "TGI", "Measured": "> 100 µM"}
{"Compound": "Cc1cccc2c3ccc4c(c3n(C)c12)C(=O)C=CC4=O", "Assayed Target": "A549 NSCLC", "Quantity Name": "TGI", "Measured": "> 100 µM"}
{"Compound": "C[C@]12CCC(=O)C=C1CC[C@@H]1C2CC[C@]2(C)NC(=O)C(C#N)CC12 (some centres undefined)", "Assayed Target": "A549 NSCLC", "Quantity Name": "TGI", "Measured": "> 100 µM"}
{"Compound": "Fc1ccc(-c2nn(-c3ccccc3)cc2-c2nc3ccccc3o2)cc1", "Assayed Target": "A549 NSCLC", "Quantity Name": "TGI", "Measured": "16.4 µM"}
{"Compound": "CCOC(=O)c1c(SCCN2CCCC2)n(-c2ccccc2)c(=S)n(-c2ccccc2)c1=O", "Assayed Target": "A549 NSCLC", "Quantity Name": "TGI", "Measured": "14.6 µM"}
{"Compound": "C=CCCCC12CCCc3cccc(c31)NC2=O (centres undefined)", "Assayed Target": "A549 NSCLC", "Quantity Name": "TGI", "Measured": "51.2 µM"}
{"Compound": "COc1ccccc1NC(=O)c1ccc(/C=C/C(=O)c2nccn2C)cc1", "Assayed Target": "A549 NSCLC", "Quantity Name": "TGI", "Measured": "8.75 µM"}
{"Compound": "CCOC(=O)CCCO", "Assayed Target": "A549 NSCLC", "Quantity Name": "TGI", "Measured": "> 100 µM"}
{"Compound": "CC1=CC=CC(C)(C)CC1(O[Si](C)(C)C)C(F)(F)F (centres undefined)", "Assayed Target": "A549 NSCLC", "Quantity Name": "TGI", "Measured": "> 100 µM"}
{"Compound": "CN1CCN(C(=S)N(C)C(=O)c2ccc(Cl)cc2)CC1", "Assayed Target": "A549 NSCLC", "Quantity Name": "TGI", "Measured": "> 100 µM"}
{"Compound": "CNC(=O)c1cc(Oc2ccc3c(c2)sc2nc(-c4ccc(N)cc4)cn23)ccn1", "Assayed Target": "A549 NSCLC", "Quantity Name": "TGI", "Measured": "> 100 µM"}
{"Compound": "CC(=O)/C(=C/n1c(=S)sc2ccccc21)C(=O)Nc1ccccc1C", "Assayed Target": "A549 NSCLC", "Quantity Name": "TGI", "Measured": "> 100 µM"}
{"Compound": "O=C(N/N=C/c1cccc(O)c1O)N/N=C/c1cccc(O)c1O", "Assayed Target": "A549 NSCLC", "Quantity Name": "TGI", "Measured": "> 100 µM"}
{"Compound": "COc1cc([C@@H]2c3cc4c(cc3[C@@H](NC(=O)c3cccc([N+](=O)[O-])c3)C3COC(=O)[C@@H]32)OCO4)cc(OC)c1O (some centres undefined)", "Assayed Target": "A549 NSCLC", "Quantity Name": "TGI", "Measured": "1.72 µM"}
{"Compound": "CC(C)(CO)N1C(=O)c2ccccc2C1(O)c1ccc(Cl)cc1 (centres undefined)", "Assayed Target": "A549 NSCLC", "Quantity Name": "TGI", "Measured": "> 100 µM"}
{"Compound": "O=C(O[C@H](/C=C/c1ccccc1)P1(=O)N(Cc2ccccc2)[C@@H]2CCCC[C@H]2N1Cc1ccccc1)c1ccccc1", "Assayed Target": "A549 NSCLC", "Quantity Name": "TGI", "Measured": "> 100 µM"}
{"Compound": "Cc1cc2cccc(Cl)c2nc1C(=O)c1ccccc1", "Assayed Target": "A549 NSCLC", "Quantity Name": "TGI", "Measured": "> 100 µM"}
{"Compound": "N#Cc1nc(-c2ccc(F)cc2)oc1S(=O)(=O)N1CCOCC1", "Assayed Target": "A549 NSCLC", "Quantity Name": "TGI", "Measured": "38.7 µM"}
{"Compound": "O=C(Nc1ccccc1[N+](=O)[O-])c1ccccc1", "Assayed Target": "A549 NSCLC", "Quantity Name": "TGI", "Measured": "> 100 µM"}
{"Compound": "O=S(=O)(O)C(O)/C=C/c1ccccc1 (centres undefined)", "Assayed Target": "A549 NSCLC", "Quantity Name": "TGI", "Measured": "> 100 µM"}
{"Compound": "COC(=O)C(CC(=O)c1cc2c(cc1I)OCO2)Cc1cc(OC)c(OC)c(OC)c1I (centres undefined)", "Assayed Target": "A549 NSCLC", "Quantity Name": "TGI", "Measured": "> 100 µM"}
